# testedOn: BTK (Homo sapiens)
# Construct: host or cells: NAMALWA
# assayRemarks: BTK degradation in NAMALWA cells, immunoblot
# Type: cell-based
# runConditions: Table 6; in NAMALWA cells line
quantityKind: Dmax

compound	testedOn	Dmax
Nc1ncnc2c1c(-c1ccc(Oc3ccccc3)cc1)nn2C1CCN(CCOCCOCCOc2ccc3c(c2)CN(C2CCC(=O)NC2=O)C3=O)CC1 (stereo not shown) [COMPOUND 135]	BTK (Homo sapiens)	>99%
Cc1ncsc1-c1ccc(CNC(=O)[C@@H]2C[C@@H](O)CN2C(=O)[C@@H](NC(=O)COCCOCCN2CCC(n3nc(-c4ccc(Oc5ccccc5)cc4)c4c(N)ncnc43)CC2)C(C)(C)C)cc1 [Compound 129]	BTK (Homo sapiens)	<50%

QUERY: Given the entry Cc1ncsc1-c1ccc(CNC(=O)[C@@H]2C[C@@H](O)CN2C(=O)[C@H](C(C)C)N2Cc3ccccc3C2=O)c(OCCCOCCC(=O)N2CCC(n3nc(-c4ccc(Oc5ccccc5)cc4)c4c(N)ncnc43)CC2)c1 [Compound 128] , report its measured Dmax.
RESULT: <50%

QUERY: Entry Cc1ncsc1-c1ccc(CNC(=O)[C@@H]2C[C@@H](O)CN2C(=O)[C@H](C(C)C)N2Cc3ccccc3C2=O)c(OCCCCOCCCCN2CCC(n3nc(-c4ccc(Oc5ccccc5)cc4)c4c(N)ncnc43)CC2)c1 [Compound 127] : reported Dmax = ?
RESULT: <50%

###

Items are presented alongside their recorded DC50.
# testedOn: BTK (Homo sapiens, UniProt Q06187)
# Construct: host or cells: NAMALWA
# Sequence (Q06187 whole entry): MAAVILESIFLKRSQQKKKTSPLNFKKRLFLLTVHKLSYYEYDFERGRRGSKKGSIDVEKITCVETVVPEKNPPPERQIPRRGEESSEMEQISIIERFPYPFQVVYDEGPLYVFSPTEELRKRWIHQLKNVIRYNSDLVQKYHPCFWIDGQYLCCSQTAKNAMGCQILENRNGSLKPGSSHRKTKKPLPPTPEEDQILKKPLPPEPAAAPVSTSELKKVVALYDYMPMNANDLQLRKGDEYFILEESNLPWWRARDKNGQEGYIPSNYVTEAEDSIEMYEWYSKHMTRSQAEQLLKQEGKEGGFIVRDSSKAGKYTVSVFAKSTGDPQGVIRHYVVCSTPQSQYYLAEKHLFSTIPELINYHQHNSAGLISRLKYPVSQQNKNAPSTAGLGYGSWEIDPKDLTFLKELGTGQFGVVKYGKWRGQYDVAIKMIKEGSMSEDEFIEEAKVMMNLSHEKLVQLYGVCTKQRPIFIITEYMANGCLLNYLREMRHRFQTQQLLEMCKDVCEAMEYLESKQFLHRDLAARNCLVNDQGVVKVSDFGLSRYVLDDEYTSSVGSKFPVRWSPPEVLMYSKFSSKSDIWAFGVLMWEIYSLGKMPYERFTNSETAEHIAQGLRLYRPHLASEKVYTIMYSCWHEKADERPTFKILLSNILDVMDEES
# assayRemarks: BTK degradation in NAMALWA cells, immunoblot
# Assay type: cell-based
# runConditions: Table 5; NAMALWA cells
Reply with just the number (in nM).

Known DC50 results, listed for orientation:
compound	unitDescriptor	dataValue
Nc1ncnc2c1c(-c1ccc(Oc3ccccc3)cc1)nn2C1CCN(CCOCCOCC(=O)Nc2ccc3c(c2)C(=O)N(C2CCC(=O)NC2=O)C3=O)CC1 (centres unmarked)	nM	11
Nc1ncnc2c1c(-c1ccc(Oc3ccccc3)cc1)nn2C1CCN(CCOCCOCCOc2ccc3c(c2)CN(C2CCC(=O)NC2=O)C3=O)CC1 (centres unmarked)	nM	8

// below: DC50 requested for another compound
QUERY: Look up DC50: Nc1ncnc2c1c(-c1ccc(Oc3ccccc3)cc1)nn2C1CCN(CCOCCOCCOc2ccc3c(c2)C(=O)N(C2CCC(=O)NC2=O)C3=O)CC1 (centres unmarked)
RESULT: 11

###

# testedOn: BTK (Homo sapiens, UniProt Q06187)
# Construct: host or cells: NAMALWA
# assayRemarks: BTK degradation in NAMALWA cells, immunoblot
# Format: cell-based
# runConditions: Table 6; in NAMALWA cells line
Each record here notes measured DC50.

The examples below pair each entry with its known result.
compound	quantityKind	dataValue
Cc1ncsc1-c1ccc(CNC(=O)[C@@H]2C[C@@H](O)CN2C(=O)[C@H](C(C)C)N2Cc3ccccc3C2=O)c(OCCCOCCC(=O)N2CCC(n3nc(-c4ccc(Oc5ccccc5)cc4)c4c(N)ncnc43)CC2)c1	DC50	> 1000 nM
Cc1ncsc1-c1ccc(CNC(=O)[C@@H]2C[C@@H](O)CN2C(=O)[C@H](C(C)C)N2Cc3ccccc3C2=O)c(OCCCCOCCCCN2CCC(n3nc(-c4ccc(Oc5ccccc5)cc4)c4c(N)ncnc43)CC2)c1	DC50	> 1000 nM

QUERY: Fill in: DC50 of Cc1ncsc1-c1ccc(CNC(=O)[C@@H]2C[C@@H](O)CN2C(=O)[C@@H](NC(=O)COCCOCCN2CCC(n3nc(-c4ccc(Oc5ccccc5)cc4)c4c(N)ncnc43)CC2)C(C)(C)C)cc1 is ___
RESULT: > 1000 nM

The measurements presented in this section are drawn from patent US20200121684A1.
